# Test System: Estrogen receptor (Homo sapiens) (UniProt P03372)
# Sequence (P03372 whole entry, looked up): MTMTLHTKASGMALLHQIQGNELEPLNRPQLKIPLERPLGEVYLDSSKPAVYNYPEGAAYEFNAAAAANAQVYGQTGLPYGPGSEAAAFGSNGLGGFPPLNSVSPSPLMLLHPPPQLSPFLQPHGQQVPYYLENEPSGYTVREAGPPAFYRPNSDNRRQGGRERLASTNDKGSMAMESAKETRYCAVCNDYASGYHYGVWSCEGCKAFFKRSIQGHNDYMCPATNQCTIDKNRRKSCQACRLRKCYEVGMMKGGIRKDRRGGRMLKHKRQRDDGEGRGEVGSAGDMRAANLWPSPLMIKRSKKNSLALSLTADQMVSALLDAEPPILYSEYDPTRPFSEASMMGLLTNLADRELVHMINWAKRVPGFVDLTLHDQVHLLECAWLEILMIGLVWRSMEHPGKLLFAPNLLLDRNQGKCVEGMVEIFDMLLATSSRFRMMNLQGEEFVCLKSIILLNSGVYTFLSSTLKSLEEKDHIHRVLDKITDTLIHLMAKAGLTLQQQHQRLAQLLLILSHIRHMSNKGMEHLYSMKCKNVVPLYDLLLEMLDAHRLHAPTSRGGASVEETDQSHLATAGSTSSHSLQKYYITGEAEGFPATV
# Test Method Notes: qHTS assay for small molecule antagonists of estrogen receptor alpha signaling (AID 588513)
# Protocol Conditions: ER-alpha-UAS-bla HEK293, beta-lactamase ratio, antagonist mode; series mostly up to 76.9 µM
Calls of active or inactive are those of the source. The call rests on the fitted dose curve; in most records, active means well fitted curve in the direction sought with a large enough effect in the signal ratio, with a control signal flat (not every such curve was filed as active); inconclusive means small, poorly fitted or top-dose-only effect, or effect the other way, or a change in a side signal; inactive means no such curve, though single readings can be large or run the other way; the % refers to the signal ratio.
A correct response names exactly one class from label 1 (active), label 0 (inactive)

Use these answered entries as a reference point.
1. CCOC1Oc2ccc(OS(C)(=O)=O)cc2C1(C)C (stereo unspecified)	label 0
2. COC(=O)c1ccccc1S(=O)(=O)NC(=O)N(C)c1nc(C)nc(OC)n1	label 0
3. O=S1OC[C@@H]2[C@H](CO1)[C@@]1(Cl)C(Cl)=C(Cl)[C@]2(Cl)C1(Cl)Cl (stereo partly specified)	label 0
4. CNC(=O)Oc1cc(C)cc(C(C)C)c1	label 0
5. CCOP(=S)(OCC)Oc1ccc(S(C)=O)cc1 (stereo unspecified)	label 0

input: Identify the outcome logged in this assay for the molecule shown: CCOP(=O)(OCC)SCSC(C)(C)C
output: label 0

input: Identify the outcome logged in this assay for the molecule shown: O=C(NC(=O)c1c(F)cccc1F)Nc1ccc(OC(F)(F)C(F)OC(F)(F)F)c(Cl)c1 (stereo unspecified)
output: label 0

input: Identify the outcome logged in this assay for the molecule shown: C[C@@H]1CC[C@@]2(OC1)O[C@H]1[C@@H](O)[C@H]3[C@@H]4CC[C@H]5C[C@@H](O[C@@H]6O[C@H](CO)[C@H](O[C@@H]7O[C@H](CO)[C@@H](O)[C@H](O[C@@H]8OC[C@@H](O)[C@H](O)[C@H]8O)[C@H]7O[C@@H]7O[C@H](CO)[C@@H](O)[C@H](O[C@@H]8O[C@H](CO)[C@@H](O)[C@H](O)[C@H]8O)[C@H]7O)[C@H](O)[C@H]6O)[C@H](O)C[C@]5(C)[C@H]4CC[C@]3(C)[C@H]1[C@@H]2C
output: label 1

input: Identify the outcome logged in this assay for the molecule shown: COP(=O)(OC)O/C(=C\Cl)c1cc(Cl)c(Cl)cc1Cl
output: label 0

====

# Test System: Peroxisome proliferator-activated receptor delta (Homo sapiens) (UniProt Q03181)
# Sequence (Q03181 whole entry, looked up): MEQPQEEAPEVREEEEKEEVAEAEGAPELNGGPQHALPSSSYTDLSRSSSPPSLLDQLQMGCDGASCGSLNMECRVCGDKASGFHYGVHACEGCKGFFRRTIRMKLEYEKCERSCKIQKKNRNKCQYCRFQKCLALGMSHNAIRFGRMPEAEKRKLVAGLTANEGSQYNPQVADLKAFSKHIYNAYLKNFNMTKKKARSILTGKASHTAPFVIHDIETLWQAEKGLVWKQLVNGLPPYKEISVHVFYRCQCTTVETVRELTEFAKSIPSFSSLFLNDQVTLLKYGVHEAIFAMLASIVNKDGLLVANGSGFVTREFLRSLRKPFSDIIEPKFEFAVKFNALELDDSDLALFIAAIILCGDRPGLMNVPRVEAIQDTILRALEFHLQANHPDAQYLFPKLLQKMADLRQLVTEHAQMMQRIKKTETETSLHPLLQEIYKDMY
# Test Method Notes: qHTS assay for small molecule antagonists of peroxisome proliferator-activated receptor delta signaling (AID 588535)
# Protocol Conditions: HEK293T PPARd-UAS-bla, beta-lactamase FRET ratio, 18 h; series mostly up to 76.7 µM
Records with an inconclusive call do not appear. Activity calls are given as the source filed them. The call rests on the fitted dose curve; in most records, active means well fitted inhibition curve with a large enough effect in the signal ratio, with a control signal flat (not every such curve was filed as active); inconclusive means small, poorly fitted or top-dose-only effect, or effect the other way, or a change in a side signal; inactive means no such curve, though single readings can be large or run the other way; the % refers to the signal ratio.
A correct response names exactly one class from 1.0 for active, 0.0 for inactive

Use these answered entries as a reference point.
1. CN/C(=N/[N+](=O)[O-])NCC1CCOC1 (stereo unspecified)	0.0
2. COC(=O)c1ccccc1S(=O)(=O)NC(=O)N(C)c1nc(C)nc(OC)n1	0.0
3. O=C1NCCN1Cc1ccc(Cl)nc1	0.0
4. Nc1cnn(-c2ccccc2)c(=O)c1Cl	0.0
5. O=[As](O)(O)O	0.0

input: Identify the outcome logged in this assay for the molecule shown: O=C(O)C(F)(F)C(F)(F)C(F)(F)C(F)(F)C(F)(F)F
output: 0.0

input: Identify the outcome logged in this assay for the molecule shown: CCC[CH2][Sn]([Cl])([Cl])[CH2]CCC
output: 1.0

input: Identify the outcome logged in this assay for the molecule shown: FC(F)(F)c1ccc(OCCCOc2c(Cl)cc(OCC=C(Cl)Cl)cc2Cl)nc1
output: 0.0

input: Identify the outcome logged in this assay for the molecule shown: O=C1C=CC(=O)c2ccccc21
output: 0.0

input: Identify the outcome logged in this assay for the molecule shown: CCCOc1nn(C(=O)NS(=O)(=O)c2ccccc2C(=O)OC)c(=O)n1C
output: 0.0

====

# Test System: Peroxisome proliferator-activated receptor delta (Homo sapiens) (UniProt Q03181)
# Test Method Notes: qHTS assay for small molecule agonists of peroxisome proliferator-activated receptor delta signaling (AID 588534);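 further: 0% = DMSO basal wells and 100% = positive control agonist at 10 µM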
# Protocol Conditions: HEK293T PPARdelta-UAS-bla, beta-lactamase ratio, 18 h; series mostly up to 76.7 µM
Records with an inconclusive call do not appear. Calls of active or inactive are those of the source. Calls follow the shape of the full dose curve.
Readout Type: outcome

1. CNC(=O)O/N=C(\C)SC	inactive
2. COP(=O)(OC)SCn1c(=O)oc2cc(Cl)cnc21	inactive
3. Nc1nc(-c2ccccc2)cs1	inactive

====

# Test System: Estrogen receptor (Homo sapiens)
# Test Method Notes: qHTS assay for small molecule antagonists of estrogen receptor alpha signaling (AID 588513)
# Protocol Conditions: ER-alpha-UAS-bla HEK293, beta-lactamase ratio, antagonist mode; series mostly up to 76.9 µM
The source made the active and inactive calls. Calls follow the shape of the dose curve; as a rule, active = well fitted curve in the direction sought with a large enough effect in the signal ratio, with a control signal flat (not every such curve was filed as active); inconclusive = small, poorly fitted or top-dose-only effect, or effect the other way, or a change in a side signal; inactive = no such curve, though single readings can be large or run the other way; the % refers to the signal ratio.
A correct response names exactly one class from active, inactive

Use these answered entries as a reference point.
1) CN(C)c1nc(=O)n(C2CCCCC2)c(=O)n1C	inactive
2) COC(=O)c1ccccc1CS(=O)(=O)NC(=O)Nc1nc(OC)cc(OC)n1	inactive
3) O=P(OCC(Br)CBr)(OCC(Br)CBr)OCC(Br)CBr (stereo not given)	active

input: Identify the outcome logged in this assay for the compound shown: c1cc(OCC2CO2)cc(OCC2CO2)c1 (stereo not given)
output: active

input: Identify the outcome logged in this assay for the compound shown: CC(C)CC(C)Nc1ccc(Nc2ccccc2)cc1 (stereo not given)
output: active

input: Identify the outcome logged in this assay for the compound shown: O=c1[nH]c2ccccc2c(=O)o1
output: inactive

input: Identify the outcome logged in this assay for the compound shown: CCCN(CC)CC1COC2(CCC(C(C)(C)C)CC2)O1 (stereo not given)
output: inactive

input: Identify the outcome logged in this assay for the compound shown: O=P(O)(O)CCCl
output: inactive

input: Identify the outcome logged in this assay for the compound shown: CCC[CH2][Sn]([CH2]CCC)[CH2]CCC
output: active

====

# Test Method Notes: NFAT Signaling Pathway (AID 444);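 further: carbachol stimulus at about its EC50 of 1 µM final; on the % scale 0 is the no-effect control and ±100 the full control effect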
# Protocol Conditions: Jurkat NFAT-bla M1, carbachol, beta-lactamase ratio, 5 h; at 17.2 µM (top of the series) unless noted
# Method: NCGC Assay Overview: The nuclear factor of activated T cells (NFAT) family of transcription factors has been found primarily in most immune system cells and some other non-immune cells. NFAT plays the immunomodulatory role, primarily in T-cell activation and differentiation. […] NCGC Assay Protocol Summary: The cells were prepared in RPMI 1640 medium containing 0.1% dialyzed FBS and 25 mM HEPES at 1.6 x 10^6cell/ml. […] The %Activity was determined from the ratio of 460nm/530nm. […]
Results filed as inconclusive are left out.
Readout Type: activity change, negative = inhibition (%)
Output spec: scalar in %, unitless text.

1. COc1ccccc1-n1c(O)c(C=NCCCn2ccnc2)c(=O)[nH]c1=O	10.5
2. CC(=NCCO)c1c(O)n(C)c(=O)n(C)c1=O	-3.31
3. O=c1[nH]c(=O)n(-c2cccc3ccccc23)c(O)c1C=NCCCn1ccnc1	-7.5
4. COc1ccc2c(c1)c(C(=O)O)c(C)n2CC(C)C	1.61

input: Report activity change, negative = inhibition for CCOc1ccc(Cc2c(O)[nH]c(=O)[nH]c2=O)cc1 please.
output: 3.49

input: Report activity change, negative = inhibition for CC(=O)OC1N=C(c2ccccc2)c2ccccc2NC1=O (configuration not stated) please.
output: 11.5

input: Report activity change, negative = inhibition for CC(C)(C)OC(=O)c1c(N)n(Cc2ccco2)c2nc3ccccc3nc12 please.
output: 5.75

====

# Test Method Notes: NFAT Signaling Pathway (AID 444);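 further: carbachol stimulus at about its EC50 of 1 µM final; on the % scale 0 is the no-effect control and ±100 the full control effect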
# Protocol Conditions: Jurkat NFAT-bla M1, carbachol, beta-lactamase ratio, 5 h; at 17.2 µM (top of the series) unless noted
Records with an inconclusive call do not appear. The source made the active and inactive calls. Calls come from the whole dose curve; as a rule, active = well fitted curve in either direction with a large enough effect (not every such curve was filed as active); inconclusive = small, poorly fitted or top-dose-only effect, or another doubt; inactive = flat fitted curve, though single readings scatter.
A correct response names exactly one class from active, inactive

Use these answered entries as a reference point.
1) CNc1ccc2oc(C[C@@H]3O[C@@]4(CC[C@H]3C)O[C@@H]([C@@H](C)C(=O)c3ccc[nH]3)[C@@H](C)C[C@H]4C)nc2c1C(=O)O	active
2) COC(=O)C(c1ccccc1)N1CCCCCC1 (configuration not stated)	inactive
3) C[C@H]1C[C@@H](C)C(=O)[C@@H]([C@H](O)CC2CC(=O)NC(=O)C2)C1	active
4) COc1ccc(Cn2c(O)c(C=NCCCn3ccnc3)c(=O)[nH]c2=O)cc1	inactive
5) CCCCOCCCn1c(N)c(C(=O)OC(C)COC)c2nc3ccccc3nc21 (configuration not stated)	inactive
6) CC1CCC(C(C)C)C(OP(N)(=O)c2ccccc2)C1 (configuration not stated)	inactive

input: Identify the outcome logged in this assay for the molecule shown: O=c1[nH]c(=O)n(Cc2ccco2)c(O)c1C=NCCCn1ccnc1
output: inactive

====

# Test System: Glucocorticoid receptor (Homo sapiens) (UniProt P04150)
# Sequence (P04150 whole entry, looked up): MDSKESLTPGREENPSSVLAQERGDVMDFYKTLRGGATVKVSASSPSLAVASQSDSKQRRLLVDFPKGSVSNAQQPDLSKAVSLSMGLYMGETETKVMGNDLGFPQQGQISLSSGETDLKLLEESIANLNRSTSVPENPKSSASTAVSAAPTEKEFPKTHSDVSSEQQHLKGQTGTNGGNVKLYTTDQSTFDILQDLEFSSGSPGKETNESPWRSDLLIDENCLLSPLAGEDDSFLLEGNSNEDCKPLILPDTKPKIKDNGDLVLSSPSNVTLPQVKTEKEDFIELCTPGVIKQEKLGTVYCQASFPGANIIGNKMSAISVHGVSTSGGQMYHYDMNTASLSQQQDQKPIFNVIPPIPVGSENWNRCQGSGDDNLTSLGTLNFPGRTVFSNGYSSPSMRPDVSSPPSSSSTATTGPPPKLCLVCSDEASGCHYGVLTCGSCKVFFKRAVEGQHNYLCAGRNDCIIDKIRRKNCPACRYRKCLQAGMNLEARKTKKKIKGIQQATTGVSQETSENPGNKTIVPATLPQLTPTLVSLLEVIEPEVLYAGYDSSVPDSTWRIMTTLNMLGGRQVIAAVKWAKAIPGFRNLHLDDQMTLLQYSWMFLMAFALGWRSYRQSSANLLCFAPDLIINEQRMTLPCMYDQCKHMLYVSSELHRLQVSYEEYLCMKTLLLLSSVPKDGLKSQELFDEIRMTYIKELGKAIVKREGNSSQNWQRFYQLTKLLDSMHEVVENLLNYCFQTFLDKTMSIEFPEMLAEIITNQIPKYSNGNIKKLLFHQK
# Test Method Notes: GR-EFC Redistribution (AID 451); further: potency means the concentration at half of the fitted maximal effect
# Protocol Conditions: CHO-K1 GR-EFC translocation, beta-gal luminescence, 2 h
# Method: NIH Molecular Libraries Screening Centers Network [MLSCN] NIH Chemical Genomics Center [NCGC] The glucocorticoid receptor (GR) is a cytoplasmic receptor that belongs to the nuclear receptor family of ligand-dependent transcription factors. […] GR-translocation was measured beta-gal enzyme activity using the PathHunter Detection Kit containing cell membrane permeablizing reagent and beta-gal substrate (DiscoveRx, Fremont, CA). […] Read plate in luminescence mode in ViewLux plate reader (PerkinElmer) […]
Activity calls are given as the source filed them. The call rests on the fitted dose curve.
Readout Type: Potency

Sample records with Potency:
1) C=C(C)[C@@H]1CN[C@H](C(=O)O)[C@H]1CC(=O)O	> 46 µM (inactive)
2) COC[C@@H]1OC(=O)c2coc3c2[C@]1(C)C1=C(C3=O)[C@H]2CCC(=O)[C@]2(C)C[C@@H]1OC(C)=O	> 46 µM (inactive)

input: Report Potency for CCN1C[C@]2(C)CC[C@@H](O)[C@]34[C@@H]5CC6[C@@H](OC)C[C@@](O)([C@H]5[C@@H]6O)[C@@H](C[C@@H]23)[C@H]14 please.
output: > 46 µM (inactive)
